Target: MCL1/Bim (Homo sapiens (Human))
Sequence (Q07820 171-327): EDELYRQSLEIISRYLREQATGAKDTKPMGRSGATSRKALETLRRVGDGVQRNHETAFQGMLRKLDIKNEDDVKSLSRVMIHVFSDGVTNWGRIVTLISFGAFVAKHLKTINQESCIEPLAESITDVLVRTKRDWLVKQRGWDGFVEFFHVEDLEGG
Experiment: MCL1/Bim Binding AlphaLISA Assay
Details: recombinant human 6xHis-MCL1 (171-327), biotinylated Bim peptide (51-76)
Hi! Just check whether IC50 is below 0.07 nM. Below gives Yes, equal or above gives No.

stdin: Hello, is IC50 of the following molecule strictly smaller than 0.07 nM? CO[C@H]1/C=C/C[C@H](C)[C@@H](C)[S@@](=O)(NC(=O)c2cc3n(c2)CCOC3)=NC(=O)c2ccc3c(c2)N(C[C@@H]2CC[C@H]21)C[C@]1(CO3)SCCc2cc(Cl)ccc21
stdout: No

stdin: Do the same for CC[C@@H]1CC/C=C/[C@H](OC)[C@@H]2CC[C@H]2CN2C[C@@]3(CCCc4cc(Cl)ccc43)COc3ccc(cc32)C(=O)/[N+]([O-])=[S@]\1NC(=O)c1cn(C)nc1OC please
stdout: No

stdin: What do we get for COc1nn(C)cc1C(=O)N[S@@]1(=O)=NC(=O)c2ccc3c(n2)N(C[C@@H]2CC[C@H]2[C@@H](OC)/C=C/[C@H](O)[C@H](C)C1)C[C@@]1(CCCc2cc(Cl)ccc21)CO3 (mixture of isomers) ?
stdout: Yes

stdin: Cool, now COc1nn(C)cc1C(=O)N[S@@]1(=O)=NC(=O)c2ccc3c(c2)N(C[C@@H]2CC[C@H]2[C@](CN2CCN(C4COC4)CC2)(OC)/C=C/C[C@H](C)C1)C[C@@]1(CCCc2cc(Cl)ccc21)CO3
stdout: Yes

stdin: Could you do the same for CO[C@H]1/C=C/C[C@H](C)C[S@@](=O)(NC(=O)c2cnn(C)c2)=NC(=O)c2ccc3c(c2)N(C[C@@H]2CC[C@H]21)C[C@]1(CO3)SCCc2cc(Cl)ccc21 , please?
stdout: Yes

stdin: // query: COC[C@H]1C/C=C/[C@H](OC)[C@@H]2CC[C@H]2CN2C[C@@]3(CCCc4cc(Cl)ccc43)COc3ccc(cc32)C(=O)N=[S@@](=O)(NC(=O)COC2CCOCC2)C1
stdout: No

stdin: Please answer likewise for C[C@H]1C/C=C/[C@H](OCCN2CCOCC2)[C@@H]2CC[C@H]2CN2C[C@@]3(CCCc4cc(Cl)ccc43)COc3ccc(cc32)C(=O)N=[S@](=O)(Nc2ncnc3nn(C)cc23)C1
stdout: No

stdin: And Cn1nccc1CCC(=O)NS1(=O)=NC(=O)c2ccc3c(c2)N(C[C@@H]2CC[C@H]2[C@@H](OCCN2CCOCC2)/C=C/CCC1)C[C@@]1(CCCc2cc(Cl)ccc21)CO3 (stereo partly shown) ?
stdout: No

stdin: Same question for CO[C@H]1/C=C/C[C@H](C)C[S@@](=O)(Nc2nc(Cl)nc3nn(C)cc23)=NC(=O)c2ccc3c(c2)N(C[C@@H]2CC[C@H]21)C[C@@]1(CCCc2cc(Cl)ccc21)CO3 please.
stdout: No
